Values were extracted from patent US7524849B2.

Hi there, I'd appreciate the recorded log10 of IC50 for every entry that follows.
System: HL-60/ADR cells
EXPERIMENTAL_DETAILS: MTS cytotoxicity test with HL-60/ADR cells (MRP1)
Format: cell-based, human
STUDY_CONDITIONS: Homo sapiens, HL60/ADR; HL-60/ADR cells, mean of 2 experiments
Scale: log10; quantity: IC50; unit before log: nM

Retrieve log10 of IC50 measured for CNCCCOc1cc(F)c(-c2c(Cl)nc(-c3ccccn3)nc2N[C@@H](C)C(F)(F)F)c(F)c1.Cl [Example 29a] and print it.
0.83

Retrieve log10 of IC50 measured for CNc1nc(Cl)c(-c2c(F)cc(OCCCN(C)C)cc2F)c(NCC(F)(F)F)n1.O=C(O)C(F)(F)F [Example 20a, trifluoroacetic acid salt] and print it.
1.83

Retrieve log10 of IC50 measured for CC[C@]1(O)C[C@H]2CN(CCc3c([nH]c4ccccc34)[C@@](C(=O)OC)(c3cc4c(cc3OC)N(C=O)[C@H]3[C@@](O)(C(=O)OC)[C@H](OC(C)=O)[C@]5(CC)C=CCN6CC[C@]43[C@@H]65)C2)C1 [Vincristine, reference compound] and print it.
1.38

Retrieve log10 of IC50 measured for CN(C)CCCOc1cc(F)c(-c2c(Cl)nc(-c3ccc4ccccc4n3)nc2NCC(F)(F)F)c(F)c1 [Example 30] and print it.
1.85

Retrieve log10 of IC50 measured for CNCCCOc1cc(F)c(-c2c(Cl)nc(-n3cccn3)nc2N[C@@H](C)C(F)(F)F)c(F)c1.Cl [Example 32a] and print it.
0.34

Retrieve log10 of IC50 measured for O=C1c2c(O)ccc(O)c2C(=O)c2c(NCCNCCO)ccc(NCCNCCO)c21 [Mitoxantrone, reference compound] and print it.
2.41

###

Hi there, I'd appreciate the recorded IC50 for every entry that follows.
Test system: HL-60/ADR cells
EXPERIMENTAL_DETAILS: MTS cytotoxicity test with HL-60/ADR cells (MRP1)
Assay type: cell-based, human
STUDY_CONDITIONS: Homo sapiens, HL60/ADR; HL-60/ADR cells, mean of 2 experiments
Give the value in nM but do not write nM after it.

Retrieve IC50 measured for CC(=O)O[C@H]1C(=O)[C@@]2(C)[C@H]([C@H](OC(=O)c3ccccc3)[C@]3(O)C[C@H](OC(=O)[C@H](O)[C@@H](NC(=O)c4ccccc4)c4ccccc4)C(C)=C1C3(C)C)[C@]1(OC(C)=O)CO[C@@H]1C[C@@H]2O [Paclitaxel, reference compound] and print it.
3.5

Retrieve IC50 measured for `CN(C)CCCOc1cc(F)c(-c2c(Cl)nc(N(C)C#N)nc2NCC(F)(F)F)c(F)c1` and print it.
60

###

System: highly purified tubulin (tubulin heterodimer)
EXPERIMENTAL_DETAILS: Competitive binding test, [3H]colchicine
Set-up: species or system bovine
STUDY_CONDITIONS: competitor 100 μM, [3H]colchicine 50 nM, percent of binding to control without competitor
MEASURED_PARAMETER: [3H]Colchicine binding, Mean

Retrieve [3H]Colchicine binding, Mean measured for CC(=O)O[C@H]1C(=O)[C@@]2(C)[C@H]([C@H](OC(=O)c3ccccc3)[C@]3(O)C[C@H](OC(=O)[C@H](O)[C@@H](NC(=O)c4ccccc4)c4ccccc4)C(C)=C1C3(C)C)[C@]1(OC(C)=O)CO[C@@H]1C[C@@H]2O [Paclitaxel, reference compound] and print it.
93 % of control

Retrieve [3H]Colchicine binding, Mean measured for CN(C#N)c1nc(Cl)c(-c2c(F)cc(F)cc2F)c(NCC(F)(F)F)n1 [Example 1] and print it.
47 % of control

Retrieve [3H]Colchicine binding, Mean measured for CN(C)CCCOc1cc(F)c(-c2c(Cl)nc(N(C)C#N)nc2NCC(F)(F)F)c(F)c1 [Example 19] and print it.
116 % of control

Retrieve [3H]Colchicine binding, Mean measured for CC[C@]1(O)C[C@H]2CN(CCc3c([nH]c4ccccc34)[C@@](C(=O)OC)(c3cc4c(cc3OC)N(C=O)[C@H]3[C@@](O)(C(=O)OC)[C@H](OC(C)=O)[C@]5(CC)C=CCN6CC[C@]43[C@@H]65)C2)C1 [Vincristine, reference compound] and print it.
99 % of control
